# assay overview: Cytotoxicity against human 293T cells after 24 hrs by MTT assay
# Assay type: cell-based
# cond: HEK-293T cells
Examples of molecules with documented CC50 at 24 h follow.
Please append the unit to your numeric answer.

| molecule | result |
| --- | --- |
| COc1ccccc1C1C2CCc3ccccc3C2=NN1c1ccc(S(N)(=O)=O)cc1 (stereo not given) | 67.2 µM |
| NS(=O)(=O)c1ccc(N2N=C3c4ccccc4CCC3C2c2ccccc2Cl)cc1 (stereo not given) | 65.3 µM |

Entry NS(=O)(=O)c1ccc(N2N=C3c4ccccc4CCC3C2c2ccc(C(F)(F)F)cc2)cc1 (stereo not given) — recorded CC50 at 24 h = 55.2 µM

So for NS(=O)(=O)c1ccc(N2N=C3c4ccccc4OCC3C2c2ccc(Cl)cc2)cc1 (stereo not given) , the logged CC50 at 24 h turned out to be 61.4 µM

So for NS(=O)(=O)c1ccc(N2N=C3c4ccccc4CCC3C2c2ccccc2)cc1 (stereo not given) , the logged CC50 at 24 h turned out to be 66.9 µM

The measured CC50 at 24 h associated with NS(=O)(=O)c1ccc(N2N=C3c4ccccc4OCC3C2c2ccccc2F)cc1 (stereo not given) reads 70.5 µM

Per the records, this molecule ( COc1ccc(C2C3COc4ccccc4C3=NN2c2ccc(S(N)(=O)=O)cc2)cc1 (stereo not given) ) has CC50 at 24 h equal to 69.5 µM

Note to self: CC50 at 24 h recorded for NS(=O)(=O)c1ccc(N2N=C3c4ccccc4CCC3C2c2ccc(Br)cc2)cc1 (stereo not given) was 69.3 µM

Entry under test: NS(=O)(=O)c1ccc(N2N=C3c4ccccc4CCC3C2c2ccc(Cl)cc2Cl)cc1 (stereo not given) . Its CC50 at 24 h was 64 µM

In plain terms, NS(=O)(=O)c1ccc(N2N=C3c4ccccc4OCC3C2c2ccccc2Cl)cc1 (stereo not given) has a documented CC50 at 24 h of 75 µM
